target: human BRD4 bromodomain II (Homo sapiens); construct: human BRD4 bromodomain II [based on Genbank NM_058243, residues 349-460]; host or cells: E. coli; experiment: Bromodomain binding assay (AlphaScreen), BRD4 BDII; conditions: AlphaScreen assay, Table C2; read-out: BRD4 BDII IC50

compound	target.desc	IC50
CC(=O)Nc1cc(-c2cc(F)cc(-c3ccc(N4CCN(C)C4=O)c(Cl)c3)c2O)cc(N2CCNCC2)n1	human BRD4 bromodomain II (Homo sapiens)	1 to 10 nM
CN1CCN(c2ccc(-c3cc(F)cc(-c4ccnc(N5CCNCC5=O)c4)c3O)cc2Cl)C1=O	human BRD4 bromodomain II (Homo sapiens)	1 to 10 nM
Cn1ccn(-c2ccc(-c3cc(F)cc(-c4cc(N5CCN6CCCCC6C5)c5cn[nH]c5c4)c3O)cc2Cl)c1=O (stereo not shown)	human BRD4 bromodomain II (Homo sapiens)	0.01 to 1 nM
O=C1CCCN1c1ccc(-c2cc(F)cc(-c3ccnc(N4CC5(CNC5)C4)c3)c2O)cc1F	human BRD4 bromodomain II (Homo sapiens)	10 to 100 nM
Cn1ccn(-c2ccc(-c3cc(F)cc(-c4cc(N5CCN6CCCC6C5)c5cn[nH]c5c4)c3O)cc2Cl)c1=O (stereo not shown)	human BRD4 bromodomain II (Homo sapiens)	0.01 to 1 nM
Cn1ccn(-c2ccc(-c3cc(F)cc(-c4cncc(N5C[C@@H](N)[C@H](O)C5)c4)c3O)cc2Cl)c1=O	human BRD4 bromodomain II (Homo sapiens)	0.01 to 1 nM
CC[C@@H]1CN(c2cc(-c3cc(F)cc(-c4ccc(-n5ccn(C)c5=O)c(Cl)c4)c3O)cc3[nH]ncc23)CCN1	human BRD4 bromodomain II (Homo sapiens)	0.01 to 1 nM

====

Listing of recorded IC50 by entry.
biological target: human BRD4 bromodomain II (Homo sapiens, UniProt O60885); construct: human BRD4 bromodomain II [based on Genbank NM_058243, residues 349-460]; host or cells: E. coli; experiment: Bromodomain binding assay (AlphaScreen), BRD4 BDII; settings: AlphaScreen assay, Table C2; read-out: BRD4 BDII IC50
quantity.kind: IC50

compound	recorded.result
CC(=O)Nc1ccc(-c2cccc(-c3cccc(C4CCNCC4)c3)c2O)cc1F	1 to 10 nM
CC(=O)Nc1ccc(-c2cccc(-c3ccnc(N4CC5(CNC5)C4)c3)c2O)cc1F	1 to 10 nM
CC(=O)Nc1ccc(-c2cccc(-c3ccc4c(c3)ncn4C)c2O)cc1F	> 100 nM
CC(=O)Nc1ccc(-c2cccc(-c3cccc(N4CC5(CNC5)C4)c3)c2O)cc1F	10 to 100 nM
CC(=O)Nc1ccc(-c2cccc(-c3cccc(N4CCC5(CCNC5)C4)c3)c2O)cc1F (stereo not drawn)	1 to 10 nM
Cc1ncc(-c2cc(F)cc(-c3ccc(-n4ccn(C)c4=O)c(Cl)c3)c2O)cc1N1CCN(C(C)C)CC1	0.01 to 1 nM
CN1CCCC12CCCN(c1cc(-c3cc(F)cc(-c4ccc(-n5ccn(C)c5=O)c(Cl)c4)c3O)ccn1)C2 (stereo not drawn)	0.01 to 1 nM
C[C@@H]1CN(c2cc(-c3cc(F)cc(-c4ccc(-n5ccn(C)c5=O)c(Cl)c4)c3O)ccn2)CCO1	0.01 to 1 nM
CN1CCN(c2ccc(-c3cccc(-c4cc(N5CCNCC5)c(=O)n(C)c4)c3O)cc2Cl)C1=O	1 to 10 nM
CC(=O)NC1(C)C2CCC1CN(c1cc(-c3cc(F)cc(-c4ccc(-n5ccn(C)c5=O)c(Cl)c4)c3O)ccn1)C2 (stereo not drawn)	1 to 10 nM
CN1CCN(c2ccc(-c3cccc(-c4cc(-c5ccccc5)nc(N5CCNCC5)c4)c3O)cc2Cl)C1=O	10 to 100 nM
Cn1ccn(-c2ccc(-c3cc(F)cc(-c4cncc(N5CCC(C)(O)C5)c4)c3O)cc2Cl)c1=O (stereo not drawn)	0.01 to 1 nM
C[C@@H]1CN(c2cc(-c3cc(F)cc(-c4ccc(-n5ccn(C)c5=O)c(Cl)c4)c3O)cc3[nH]cnc23)CCN1	1 to 10 nM
CN1CCN(c2ccc(-c3cc(F)cc(-c4cnc(C(=O)O)c(N5CCNCC5)c4)c3O)cc2Cl)C1=O	10 to 100 nM
CC(=O)Nc1ccc(-c2cccc(-c3ccc(OC4CCC4)cc3)c2O)cc1F	> 100 nM

Data origin: patent US20250179059A1
